Let's go through some recorded pIC50 values for HSV-1 ribonucleotide reductase (Human herpesvirus 1, UniProt P08543) together.
pIC50: −log10 of the molar value. *1 amine or outer side, *2 acyl side, *3 side chain or, on linkers, in order; H or OH if unused. Where a SMILES comes first, the peptide text is derived from it. [ ]: non-standard residue; d: D form. The star is where a group is joined. Gly(1-adamantyl) = N[C@H](C(=O)O)C12CC3CC(CC(C3)C1)C2; Asp(3,3-(CH2)4) = N[C@H](C(=O)O)C1(C(=O)O)CCCC1; tBuAla = CC(C)(C)C[C@H](N)C(=O)O; Tle = CC(C)(C)[C@H](N)C(=O)O; NH(3-pentyl) = CCC(CC)N*; Pyrrolidide = C1CCN(*)C1; CO = O=C([*:1])[*:2]; X4 = CCCC(CCC)N*

# Compound, System name, pIC50
rows = [
    ("CNC(=O)N[C@H](C(=O)N[C@@H](CC(=O)N1CCCC1)C(=O)N[C@H](C(=O)N[C@H](CO)CC(C)(C)C)C1(C(=O)O)CCCC1)C(C)(C)C", "HSV-1 ribonucleotide reductase (Human herpesvirus 1, UniProt P08543)", 6.05),
    ("CCC(CC)NC(=O)N[C@H](C(=O)N[C@@H](CC(=O)N1CCCC1)C(=O)N[C@H](C(=O)N[C@H](CO)CC(C)(C)C)C1(C(=O)O)CCCC1)C12CC3CC(CC(C3)C1)C2", "HSV-1 ribonucleotide reductase (Human herpesvirus 1, UniProt P08543)", 6.80),
    ("CC(C)(C)C[C@@H](CO)NC(=O)[C@@H](NC(=O)[C@H](CC(=O)N1CCCC1)NC(=O)[C@@H](NC(=O)NC(C)(C)C)C(C)(C)C)C1(C(=O)O)CCCC1", "HSV-1 ribonucleotide reductase (Human herpesvirus 1, UniProt P08543)", 7.00),
    ("CCC(CC)NC(=O)N[C@H](C(=O)N[C@@H](CC(=O)N1CCCC1)C(=O)N[C@H](C(=O)N[C@@H](CC(C)(C)C)C(=O)O)C1(C(=O)O)CCCC1)C12CC3CC(CC(C3)C1)C2 ({NH(3-pentyl)-CO}-[Gly(1-adamantyl)]D(Pyrrolidide)[Asp(3,3-(CH2)4)][tBuAla]-OH)", "HSV-1 ribonucleotide reductase (Human herpesvirus 1, UniProt P08543)", 7.09),
    ("CCC(CC)NC(=O)N[C@H](C(=O)N[C@@H](CC(=O)N1CCCC1)C(=O)N[C@H](C(=O)NCC(C)C)C1(C(=O)O)CCCC1)C(C)(C)C", "HSV-1 ribonucleotide reductase (Human herpesvirus 1, UniProt P08543)", 6.22),
    ("CCC(CC)NC(=O)N[C@H](C(=O)N[C@@H](CC(=O)N1CCCC1)C(=O)N[C@H](C(=O)N[C@H](CO)CC(C)(C)C)[C@H](C(=O)O)C(C)C)C(C)(C)C", "HSV-1 ribonucleotide reductase (Human herpesvirus 1, UniProt P08543)", 7.00),
    ("CCCC(CCC)NC(=O)N[C@H](C(=O)N[C@@H](CC(=O)N1CCCC1)C(=O)N[C@H](C(=O)N[C@@H](CC(C)(C)C)C(=O)O)C1(C(=O)O)CCCC1)C(C)(C)C ({X4-CO}-[Tle]D(Pyrrolidide)[Asp(3,3-(CH2)4)][tBuAla]-OH)", "HSV-1 ribonucleotide reductase (Human herpesvirus 1, UniProt P08543)", 7.02),
    ("CCC(CC)NC(=O)N[C@H](C(=O)N[C@@H](CC(=O)N1CCCC1)C(=O)N[C@H](C(=O)N[C@@H](CC(C)C)C(=O)O)[C@H](C(=O)O)C(C)C)C(C)(C)C", "HSV-1 ribonucleotide reductase (Human herpesvirus 1, UniProt P08543)", 6.24),
    ("CCCC(CCC)NC(=O)N[C@H](C(=O)N[C@@H](CC(=O)N1CCCC1)C(=O)N[C@H](C(=O)N[C@H](CO)CC(C)(C)C)C1(C(=O)O)CCCC1)C(C)(C)C [Title Compound of Example 8]", "HSV-1 ribonucleotide reductase (Human herpesvirus 1, UniProt P08543)", 7.10),
    ("CC(C)NC(=O)N[C@H](C(=O)N[C@@H](CC(=O)N1CCCC1)C(=O)N[C@H](C(=O)N[C@H](CO)CC(C)(C)C)C1(C(=O)O)CCCC1)C(C)(C)C", "HSV-1 ribonucleotide reductase (Human herpesvirus 1, UniProt P08543)", 7.15),
]
